system: FLX1; experiment: cell viability z-score within plate (CellTiter-Glo), mean of 3 biological replicates; higher = higher viability relative to plate (less growth inhibition); settings: 2 µM; time (hr): 120
quantity kind: cell viability z-score within plate

Q. What does the data say about its cell viability z-score within plate? Entry: Cc1ccc(-n2nc(C(C)(C)C)cc2NC(=O)Nc2ccc(OCCN3CCOCC3)c3ccccc23)cc1 [Doramapimod (BIRB 796)]
A. 0.479

Q. What does the data say about its cell viability z-score within plate? Entry: COc1ccc2c(Oc3ccc(NC(=O)c4c(C)n(CC(C)(C)O)n(-c5ccccc5)c4=O)nc3)ccnc2c1
A. 0.446

Q. What does the data say about its cell viability z-score within plate? Entry: CNC(=O)CN1CCC(Oc2cc3c(Nc4cccc(Cl)c4F)ncnc3cc2OC)CC1 [Sapitinib (AZD8931)]
A. 0.472

Q. What does the data say about its cell viability z-score within plate? Entry: CN(C)C/C=C/C(=O)Nc1cc2c(Nc3ccc(F)c(Cl)c3)ncnc2cc1O[C@H]1CCOC1 [Afatinib (BIBW2992)]
A. -0.688

Q. What does the data say about its cell viability z-score within plate? Entry: COc1cc2ncnc(Nc3ccc(F)c(Cl)c3)c2cc1OCCCN1CCOCC1 [Gefitinib (ZD1839)]
A. -1.17

Q. What does the data say about its cell viability z-score within plate? Entry: Cn1c(Nc2ccc(C(F)(F)F)cc2)nc2cc(Oc3ccnc(-c4ncc(C(F)(F)F)[nH]4)c3)ccc21
A. 0.193

Q. What does the data say about its cell viability z-score within plate? Entry: COc1cc(F)c(F)c(Nc2ccc(I)cc2F)c1NS(=O)(=O)C1(C[C@H](O)CO)CC1 [Refametinib (RDEA119, Bay 86-9766)]
A. -1.34

Q. What does the data say about its cell viability z-score within plate? Entry: NC1(Cc2ccc(Cl)cc2)CCN(c2ncnc3[nH]ccc23)CC1
A. -0.404

###

system: FLX1; assay: cell viability z-score within plate (CellTiter-Glo), mean of 3 biological replicates; higher = higher viability relative to plate (less growth inhibition); conditions: 2 µM; time (hr): 120
Counter-ions that a name gives are not always drawn.
Mark each entry y if its cell viability z-score within plate sits below -0.3, and n for all others.

Q. Decide: cell viability z-score within plate of CC(C)(O)CC(=O)NCCn1ccc2ncnc(Nc3ccc(Oc4cccc(C(F)(F)F)c4)c(Cl)c3)c21 strictly below -0.3?
A. y

Q. Decide: cell viability z-score within plate of O=C(O)c1ccc(Nc2ncc3c(n2)-c2ccc(Cl)cc2C(c2c(F)cccc2F)=NC3)cc1 strictly below -0.3?
A. n

Q. Decide: cell viability z-score within plate of Nc1ccc(-c2ccc3ncc4ccc(=O)n(-c5cccc(C(F)(F)F)c5)c4c3c2)cn1 strictly below -0.3?
A. n

Q. Decide: cell viability z-score within plate of C[C@@H]1CN(CC(=O)Nc2ccc3c(c2)Cc2cccc(-c4cc(=O)cc(N5CCOCC5)o4)c2S3)C[C@H](C)O1 strictly below -0.3?
A. n

Q. Decide: cell viability z-score within plate of S=C(NCc1ccc2c(c1)OCO2)N1CCN(c2ncnc3c2oc2ccccc23)CC1 strictly below -0.3?
A. y

Q. Decide: cell viability z-score within plate of Clc1ccc(Nc2nnc(Cc3ccncc3)c3ccccc23)cc1 [Vatalanib (PTK787) 2HCl] strictly below -0.3?
A. n

Q. Decide: cell viability z-score within plate of CCn1c(=O)c(-c2ccc(-c3cncs3)cc2Cl)cc2cnc(Nc3ccc(N4CCN(C)CC4)cc3)nc21 strictly below -0.3?
A. n

Q. Decide: cell viability z-score within plate of O=S(=O)(c1cccc2cnccc12)N1CCCNCC1 [Fasudil (HA-1077) HCl] strictly below -0.3?
A. n
